molecular target: MAPK14 (human) (UniProt Q16539); experiment: Inhibition of LPS Induced TNF-alpha Release in Human PBMC
Sequence (Q16539 whole entry, looked up): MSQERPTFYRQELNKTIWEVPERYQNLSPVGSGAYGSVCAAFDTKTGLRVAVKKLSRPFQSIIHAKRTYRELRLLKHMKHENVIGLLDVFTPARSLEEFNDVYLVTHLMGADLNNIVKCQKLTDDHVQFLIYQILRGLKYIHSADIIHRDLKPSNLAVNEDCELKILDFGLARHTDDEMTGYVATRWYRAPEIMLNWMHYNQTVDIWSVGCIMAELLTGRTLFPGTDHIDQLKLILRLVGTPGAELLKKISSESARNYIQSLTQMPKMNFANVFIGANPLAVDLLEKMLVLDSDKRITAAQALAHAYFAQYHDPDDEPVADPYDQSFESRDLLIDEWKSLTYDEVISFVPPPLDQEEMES
// reported IC50 for each item listed
Give the value, in units of nM, as a plain number.

Fc1ccc(-c2nc(C3CCNCC3)oc2-c2ccnc(NC3CCCCC3)c2)cc1
0.2
Fc1ccc(-c2nc(C3CCNCC3)oc2-c2ccnc(NC3CCCCC3)n2)cc1
9

// next entry
Asked: What does the record list as IC50 for C[C@@H](Nc1nccc(-n2c(-c3ccc(F)cc3)nc3nc(N4CCN(C)CC4)ccc32)n1)c1ccccc1 ?
Given back: 1

* * *

molecular target: MAPK14 (murine); experiment: Inhibition of MAPK14 Kinase Activity
MEASUREMENT NAME: IC50 (nM)
Give the value, in units of nM, as a plain number.

Asked: What does the record list as IC50 for CN1CCC(O)(c2nc(-c3ccc(F)cc3)c(-c3ccncc3)[nH]2)CC1 ?
Given back: 90

* * *

molecular target: MAPK14 (murine); assay: Inhibition of MAPK14 Kinase Activity
MEASUREMENT NAME: IC50 (µM)
Give the value, in units of µM, as a plain number.

Worked cases, answers included:
CN1CCC(O)(c2nc(-c3ccc(F)cc3)c(-c3ccncc3)o2)CC1
0.35
C[C@@H](Nc1nccc(-n2c(-c3ccc(F)cc3)nc3nc(N4CCN(C)CC4)ccc32)n1)c1ccccc1
0.006

Asked: What does the record list as IC50 for C[C@H](Nc1cc(-c2sc(C3CCNCC3)nc2-c2ccc(F)cc2)ccn1)c1ccccc1 ?
Given back: 0.004

Asked: Moving on to the next compound: Fc1ccc(-c2nc(C3CCNCC3)oc2-c2ccnc(NC3CCCCC3)n2)cc1
Given back: 0.011

Asked: Moving on to the next compound: CN1CCC(O)(c2nc(-c3ccc(F)cc3)c(-c3ccncc3)s2)CC1
Given back: 0.45

Asked: Moving on to the next compound: Fc1ccc(-c2nc(C3CCNCC3)oc2-c2ccnc(NC3CCCCC3)c2)cc1
Given back: 0.015
